# maximum observed lethal fraction values compiled below
Tested on: U2OS;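 also: FLICK assay: SYTOX Green fluorescence of dead cells tracked over time after drugging in 96-well plates, with total cell counts taken from Triton X-100 lysed wells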
test: maximum observed lethal fraction; higher = more cell death
experimental.setup: 0.1 µM

See these solved cases before continuing.
INSERT INTO measurements (molecule, target_of_assay, experimental_result) VALUES
  ('CN(C)C(=O)c1cc2cnc(Nc3ccc(N4CCNCC4)cn3)nc2n1C1CCCC1', 'U2OS', 0.0602),
  ('CC(=O)[C@]1(O)Cc2c(O)c3c(c(O)c2[C@@H](O[C@H]2C[C@H](N)[C@H](O)[C@H](C)O2)C1)C(=O)c1ccccc1C3=O', 'U2OS', 0.666),
  ('CC(C)[C@]12O[C@H]1[C@@H]1O[C@]13[C@]1(O[C@H]1C[C@H]1C4=C(CC[C@@]13C)C(=O)OC4)[C@@H]2O [Triptolide]', 'U2OS', 0.521);

**Q:** Using known records, supply maximum observed lethal fraction for Nc1ccc(-c2ccc3ncc4ccc(=O)n(-c5cccc(C(F)(F)F)c5)c4c3c2)cn1
**A:** 0.0904

Source listed as the supplement of paper PMC12406974.
